# testedSystem: mu opioid receptor (MOR) (Homo sapiens)
# test: PathHunter β-arrestin recruitment assay, PAM mode with EC20 endomorphin-1
# Format: cell-based
# measurementContext: β-arrestin recruitment; read-out: β-arr. EC50
pEC50: −log10 of the molar value.
quantityName: pEC50

• O=S(=O)(c1ccc(Cl)cc1)N1CCCC(F)C1c1ccc(F)c(Br)c1 (stereo not drawn) [Compound 29] = < 5.68
• Cc1cnc(Cl)nc1N1CCCCC1c1cccc(F)n1 (stereo not drawn) [compound 267] = < 5.68
• Fc1cnc(Cl)nc1N1CCCCC1c1cnc2cccnn12 (stereo not drawn) [compound 337] = > 6.15
• Fc1cnc(Cl)nc1N1CCCCC1c1cc(C(F)(F)F)ccn1 (stereo not drawn) [compound 278] = < 5.68
• Cc1ncc(F)c(N2CCCCC2c2cccc(C(F)(F)F)c2)n1 (stereo not drawn) [compound 269] = < 5.68
• CN1CCN(c2nc(Cl)ncc2F)C(c2cccc(C(F)(F)F)c2)C1 (racemic) [Compound 282] = 5.68 to 6.15
• Fc1c(N2CCCCC2c2cccc(C(F)(F)F)c2)ccnc1Cl (stereo not drawn) [compound 402] = > 6.15
• Fc1c(Cl)cccc1C1CCCCN1c1ccnc(Cl)n1 (stereo not drawn) [compound 405] = > 6.15

Continue with the compound presented below.
get_value(item= O=S(=O)(c1ccc(Cl)cc1)N1CCCCC1c1ccc(F)c(C(F)(F)F)c1 (racemic) [compound 55] , readout=pEC50) returns < 5.68

----------
# testedSystem: mu opioid receptor (MOR) (Homo sapiens, UniProt P35372)
# Sequence (P35372 whole entry): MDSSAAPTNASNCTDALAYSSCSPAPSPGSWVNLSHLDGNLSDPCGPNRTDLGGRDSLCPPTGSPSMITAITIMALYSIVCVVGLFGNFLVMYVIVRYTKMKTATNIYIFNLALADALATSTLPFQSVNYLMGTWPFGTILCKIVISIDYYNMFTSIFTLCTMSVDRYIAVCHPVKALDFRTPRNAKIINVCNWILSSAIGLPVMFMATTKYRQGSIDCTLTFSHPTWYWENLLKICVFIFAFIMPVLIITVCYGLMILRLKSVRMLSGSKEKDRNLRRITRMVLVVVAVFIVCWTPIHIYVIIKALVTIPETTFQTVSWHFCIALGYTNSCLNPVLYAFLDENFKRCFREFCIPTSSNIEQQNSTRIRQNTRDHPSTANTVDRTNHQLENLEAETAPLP
# test: Hit Hunter cAMP signaling assay (adenylyl cyclase inhibition), PAM mode with EC20 endomorphin-1
# Type: cell-based
# measurementContext: adenylyl cyclase inhibition; read-out: cAMP EC50
pEC50: −log10 of the molar value.
quantityName: pEC50

Consider the worked cases shown below.
* CC1CCN(S(=O)(=O)c2ccc(Cl)cc2)C1c1ccc2c(c1)CCO2 (mixture of isomers) | < 5.68
* O=S(=O)(Cc1ccc(Cl)c(Cl)c1)N1C2CCC(C2)C1c1ccc(F)c(Br)c1 (stereo not shown) | < 5.68
* O=S(=O)(c1ccc(Cl)cc1)N1C2CCC(C2)C1c1ccc(F)c(Br)c1 (stereo not shown) [Compound 178] | 5.68 to 6.15

Continue with the molecule presented below.
get_value(item= COc1cc(C2CCCCN2S(=O)(=O)c2ccc(Cl)cc2)ccc1Br (stereo not shown) , readout=pEC50) returns < 5.68

----------
Assign pEC50 to each entry below.
# testedSystem: mu opioid receptor (MOR) (Homo sapiens, UniProt P35372)
# test: PathHunter β-arrestin recruitment assay, PAM mode with EC20 endomorphin-1
# Assay type: cell-based
# measurementContext: β-arrestin recruitment; read-out: β-arr. EC50
pEC50: −log10 of the molar value.

• Fc1cc(C2CCCCN2c2nc(Cl)ncc2F)cc(C(F)(F)F)c1 (stereo not drawn) [compound 122] = > 6.15

// for each compound below, give its pEC50
1. Fc1cc(C2CC(F)CCN2c2nc(Cl)ncc2F)cc(C(F)(F)F)c1 (stereo not drawn) [compound 196]
2. N#Cc1cc(C2CCCCN2S(=O)(=O)c2ccc(Cl)cc2)ccn1 (racemic) [compound 80]
3. O=S(=O)(c1ccc(Cl)cc1)N1CCCCC1c1ccc(F)c(Cl)c1 (racemic) [compound 52]
4. O=S(=O)(Cc1ccc(Cl)cc1)N1CCCCC1c1cccc(C(F)(F)F)c1 (stereo not drawn) [Compound 22]
5. O=S(=O)(c1ccc(Cl)cc1)N1CCCCC1c1nccc(C(F)(F)F)n1 (racemic) [compound 73]
6. Fc1cc(C2CCCCN2c2nc(Cl)ncc2F)ccc1Br (stereo not drawn) [compound 290]

Result ::
1. > 6.15
2. < 5.68
3. > 6.15
4. < 5.68
5. < 5.68
6. > 6.15

// for each compound below, give its pEC50
1. [2H]C1(c2cccc(C(F)(F)F)c2)C(F)CCCN1c1nc(Cl)ncc1F (stereo not drawn) [compound 207]
2. COc1ccc(C2CCCCN2Cc2cccc(Cl)c2F)cc1Br (stereo not drawn) [compound 245]

Result ::
1. 5.68 to 6.15
2. < 5.68
